In this section we review reported TGI values for a set of molecules.
# Test system: DMS 114 small cell lung
# run description: NCI tumour cell line growth inhibition, 48 h

Q) // returns reported TGI for input `CN(C)c1ccc(/C=N\N2C(=O)c3ccccc3C2=O)cc1`
A) > 100 µM

Q) // returns reported TGI for input `O=C(NNC(=O)c1cc(/C=C/c2cccc([N+](=O)[O-])c2)[nH]c(=S)n1)Nc1ccc(Cl)cc1`
A) 97.4 µM

---
Q) // returns reported TGI for input O=C(CC(=O)C1CCOC1=O)C(=O)Nc1ccc(Cl)cc1Cl (stereo not given)
A) > 100 µM

Q) // returns reported TGI for input `CCOC(=O)c1ccc(-n2c(SCC)nc3sc(C)c(C)c3c2=O)cc1`
A) > 100 µM

Q) // returns reported TGI for input COC12CC(=O)C(C(C)=O)=C(O)C1(C)c1c(OC(C)=O)c(C)c(O)c(C(C)=O)c1O2 (stereo not given)
A) > 100 µM

====

In this section we review reported TGI values for a set of molecules.
# System: LOX IMVI melanoma
# run description: NCI tumour cell line growth inhibition, 48 h

Q) // returns reported TGI for input `Cc1ccc2[nH]c3c(ncc4[nH]c5ccccc5c43)c2c1`
A) 31.6 µM

Q) // returns reported TGI for input `O=C(O)CCCOc1cc(-c2ccccc2F)nc2cc3c(cc12)OCO3`
A) > 100 µM

Q) // returns reported TGI for input `CCOC(=O)c1ccc(-n2c(SCC)nc3sc(C)c(C)c3c2=O)cc1`
A) > 100 µM

Q) // returns reported TGI for input CCc1c(Cc2cc(C)cc(C)c2)n2c(nc1=O)SCC2CBr (stereo unspecified)
A) > 50 µM

Q) // returns reported TGI for input `Cc1cc(C)c(S(=O)(=O)ONC(=O)OC(C)(C)C)c(C)c1`
A) > 100 µM

Q) // returns reported TGI for input `N[C@@H]1CCCN(c2c(/C=C3\SC(=O)NC3=O)cccc2-c2ccccc2)C1`
A) 30.1 µM

Q) // returns reported TGI for input `CN(C)C(=O)Oc1ccc(-c2cn3cc(NC(=O)c4ccccc4)ccc3n2)cc1`
A) > 100 µM

Q) // returns reported TGI for input COC12CC(=O)C(C(C)=O)=C(O)C1(C)c1c(OC(C)=O)c(C)c(O)c(C(C)=O)c1O2 (stereo unspecified)
A) > 100 µM

Q) // returns reported TGI for input `O=C(NC(Nc1ccc(F)c(Cl)c1)(C(F)(F)F)C(F)(F)F)OCc1ccccc1`
A) > 100 µM

Q) // returns reported TGI for input `O=C(O)c1oc(C(=O)O)c(C(=O)O)c1C(=O)O`
A) > 100 µM

---
Q) // returns reported TGI for input `C=CCOC(=O)[C@@H]1C[C@@H](OC(C)(C)C)CN1C(=O)[C@@H]1[C@H]2OC(C)(C)O[C@H]2CN1C(=O)OCC1c2ccccc2-c2ccccc21`
A) 4.87 µM

Q) // returns reported TGI for input `CCOC(=O)/C=C1\c2ccccc2C(=O)N1CC(=O)OCC`
A) > 100 µM

Q) // returns reported TGI for input CCOC(=O)C1=C(C)N(NC(N)=O)C2(O)CCCC(=O)C12C (stereo unspecified)
A) > 100 µM

Q) // returns reported TGI for input `O=c1[nH]n(Cc2ccccn2)c2ccc([N+](=O)[O-])cc12`
A) > 100 µM

Q) // returns reported TGI for input `Cc1c(C)c2c(c(N)c1C#N)C(=O)N(CCN1CCNCC1)C2=O`
A) 47.9 µM

Q) // returns reported TGI for input `O=C(NNC(=O)c1cc(/C=C/c2cccc([N+](=O)[O-])c2)[nH]c(=S)n1)Nc1ccc(Cl)cc1`
A) 37.3 µM

Q) // returns reported TGI for input `O=C1CCc2c(sc3[nH]c(=S)n(Cc4ccccc4)c(=O)c23)C1`
A) 12.5 µM

Q) // returns reported TGI for input CC1=C[S+](c2ccccc2)c2cccc3cc4ccccc4c1c23 (stereo unspecified)
A) 2.23 µM
